Reference source for all entries: PubChem BioAssay (NCI)

- System: MCF7 breast
- measurement-notes: NCI tumour cell line growth inhibition, 48 h; in the data active = GI50 below about 0.43 µM; inactive = the rest
Possible outcomes: t (active), f (inactive)

[
  {
    "compound": "Cc1ccc(-c2nc3nc(-c4ccc(Br)cc4)nc(N4CCCNCC4)c3o2)cc1",
    "class-assignment": "f"
  },
  {
    "compound": "O=C1CCC/C=C\\C[C@H]2C=CC(=O)/C2=C/C[C@H](CCc2cccc(C(F)(F)F)c2)O1",
    "class-assignment": "t"
  },
  {
    "compound": "C=C1C(=O)O[C@@H]2[C@@H]3O[C@@H](C[C@@H]13)[C@](C)(O)CC/C=C(\\C)CCC[C@H]2C",
    "class-assignment": "f"
  },
  {
    "compound": "NC(=O)c1c(Br)n(C2OC(CO)C(O)C2O)c2ncnc(N)c12 (stereo not drawn)",
    "class-assignment": "t"
  },
  {
    "compound": "O=S(=O)(Nc1ccc(Cl)c(F)c1)c1ccc(-c2cnc(C3CC3)o2)cc1",
    "class-assignment": "t"
  },
  {
    "compound": "C=CC(C)c1cccc(C=O)c1O (stereo not drawn)",
    "class-assignment": "f"
  },
  {
    "compound": "COc1cccc(/C=C2\\COc3ccc(O)c(O)c3C2=O)c1",
    "class-assignment": "f"
  },
  {
    "compound": "O=C(NC1CCCCC1)OCc1c(COC(=O)NC2CCCCC2)c(-c2ccc(Cl)c(Cl)c2)n2c1CCC2",
    "class-assignment": "f"
  }
]
